system: COR-L 105; experiment: relative viability (nuclei count vs DMSO), 5 days (fraction); higher = more cells survive; conditions: first compound 0.02 µM
readout label: relative viability

In: Recorded relative viability of CC(=O)O[C@@]12CO[C@@H]1C[C@H](O)[C@@]1(C)C(=O)[C@H](O)C3=C(C)[C@@H](OC(=O)[C@H](O)[C@@H](NC(=O)OC(C)(C)C)c4ccccc4)C[C@@](O)([C@@H](OC(=O)c4ccccc4)[C@H]21)C3(C)C [Docetaxel] + CC(=O)c1c(C)c2cnc(Nc3ccc(N4CCNCC4)cn3)nc2n(C2CCCC2)c1=O [Palbociclib] (partner 0.5 µM) , please.
Out: 0.338

====

test system: HCC-15; test: relative viability (nuclei count vs DMSO), 5 days (fraction); higher = more cells survive; conditions: first compound 500 µM
Below, each of the compounds is paired with its reported relative viability value.
Please state the value as a number alone, without comment.

O=C(O)CCCCC(CCSCc1ccccc1)SCc1ccccc1 (stereo not drawn) [CPI-613] + Cc1cc(Nc2cc(N3CCN(C)CC3)nc(Sc3ccc(NC(=O)C4CC4)cc3)n2)n[nH]1 [Tozasertib] (partner 0.1 µM) | 0.112
O=C(O)CCCCC(CCSCc1ccccc1)SCc1ccccc1 (stereo not drawn) [CPI-613] + Cc1nc(Nc2ncc(C(=O)Nc3c(C)cccc3Cl)s2)cc(N2CCN(CCO)CC2)n1 [Dasatinib] (partner 0.075 µM) | 0.0395

In: Item under review: O=C(O)CCCCC(CCSCc1ccccc1)SCc1ccccc1 (stereo not drawn) [CPI-613] + NC(=O)Nc1cc(-c2cccc(F)c2)sc1C(=O)N[C@H]1CCCNC1 [AZD7762] (partner 0.2 µM) . Reported relative viability?
Out: 0.476

====

test system: BEN; assay: relative viability (nuclei count vs DMSO), 5 days (fraction); higher = more cells survive; details: first compound 0.4 µM
readout label: relative viability

In: // query relative viability value for entry Cc1sc2c(c1C)C(c1ccc(Cl)cc1)=N[C@@H](CC(=O)OC(C)(C)C)c1nnc(C)n1-2 [JQ1] + Cc1nc(Nc2ncc(C(=O)Nc3c(C)cccc3Cl)s2)cc(N2CCN(CCO)CC2)n1 [Dasatinib] (partner 0.075 µM)
Out: 0.309

====

system: PC-14; experiment: relative viability (nuclei count vs DMSO), 5 days (fraction); higher = more cells survive; conditions: first compound 0.1265 µM
readout label: relative viability

Answered examples (2):
Cc1sc2c(c1C)C(c1ccc(Cl)cc1)=N[C@@H](CC(=O)OC(C)(C)C)c1nnc(C)n1-2 [JQ1] + CC(=O)c1c(C)c2cnc(Nc3ccc(N4CCNCC4)cn3)nc2n(C2CCCC2)c1=O [Palbociclib] (partner 0.5 µM) | 0.238
Cc1sc2c(c1C)C(c1ccc(Cl)cc1)=N[C@@H](CC(=O)OC(C)(C)C)c1nnc(C)n1-2 [JQ1] + NC(=O)Nc1cc(-c2cccc(F)c2)sc1C(=O)N[C@H]1CCCNC1 [AZD7762] (partner 0.2 µM) | 0.259

In: Which measured relative viability belongs to Cc1sc2c(c1C)C(c1ccc(Cl)cc1)=N[C@@H](CC(=O)OC(C)(C)C)c1nnc(C)n1-2 [JQ1] + O=C(c1cc(Cc2n[nH]c(=O)c3ccccc23)ccc1F)N1CCN(C(=O)C2CC2)CC1 [Olaparib] (partner 8 µM) , tested on PC-14?
Out: 0.153

Each recorded value in this set is attributed to the supplement of paper PMC10307832.
